Below are pKi measurements against Tissue-type plasminogen activator (Homo sapiens) drawn from the literature.
Sequence (P00750 whole entry): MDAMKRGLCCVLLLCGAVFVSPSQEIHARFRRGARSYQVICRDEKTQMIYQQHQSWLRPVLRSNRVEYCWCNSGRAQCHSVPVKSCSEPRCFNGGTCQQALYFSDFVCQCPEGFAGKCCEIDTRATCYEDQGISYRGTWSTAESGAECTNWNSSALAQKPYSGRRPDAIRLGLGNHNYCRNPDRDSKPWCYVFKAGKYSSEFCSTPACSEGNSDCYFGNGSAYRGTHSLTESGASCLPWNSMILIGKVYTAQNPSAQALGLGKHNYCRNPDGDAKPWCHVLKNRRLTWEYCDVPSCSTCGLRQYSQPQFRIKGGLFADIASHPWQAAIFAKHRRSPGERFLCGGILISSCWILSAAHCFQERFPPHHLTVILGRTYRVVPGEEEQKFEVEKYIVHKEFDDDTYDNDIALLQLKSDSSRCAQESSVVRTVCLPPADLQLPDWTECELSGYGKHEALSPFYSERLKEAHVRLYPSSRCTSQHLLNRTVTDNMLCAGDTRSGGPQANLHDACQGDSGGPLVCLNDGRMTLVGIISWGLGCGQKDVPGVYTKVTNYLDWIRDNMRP
Answers are plain numbers, as −log10 of the molar value.

compound	pKi
CC(C)c1cc(C(C)C)c(S(=O)(=O)N[C@@H](Cc2cccc(C(=N)N)c2)C(=O)N2CCN(C(=O)CCN)CC2)c(C(C)C)c1	5.06
N=C(N)c1cc2ccccc2s1	4.82
N=C(N)c1cc2cccnc2s1	2.74
N=C(N)c1cc2c(I)cccc2s1	4.77
N=C(N)Nc1ccc(NC(=O)c2cc3ccccc3cc2O)cn1	3.74

Now, please, on to the next compound.
Req: What measured pKi goes with CCOC(=O)N1CCN(C(=O)C(Cc2cccc(C(=N)N)c2)NS(=O)(=O)c2c(C(C)C)cc(C(C)C)cc2C(C)C)CC1 (stereo not drawn) ?
Resp: 5.31
